# study_target: His-tagged CRBN-DDB1 complex (Homo sapiens (Human))
# Sequence (Q96SW2 whole entry): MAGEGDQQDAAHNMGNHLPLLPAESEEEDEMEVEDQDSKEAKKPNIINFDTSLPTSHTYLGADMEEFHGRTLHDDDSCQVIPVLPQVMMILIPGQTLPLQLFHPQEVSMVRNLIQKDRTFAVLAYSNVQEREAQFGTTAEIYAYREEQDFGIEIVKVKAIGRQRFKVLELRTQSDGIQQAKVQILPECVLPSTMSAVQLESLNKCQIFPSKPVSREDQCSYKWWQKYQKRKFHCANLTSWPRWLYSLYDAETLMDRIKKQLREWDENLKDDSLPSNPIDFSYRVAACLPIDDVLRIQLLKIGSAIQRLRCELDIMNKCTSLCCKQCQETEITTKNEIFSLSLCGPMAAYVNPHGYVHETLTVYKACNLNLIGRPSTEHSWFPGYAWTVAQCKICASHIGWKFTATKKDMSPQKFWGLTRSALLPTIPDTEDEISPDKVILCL
# Sequence (Q16531 whole entry partner): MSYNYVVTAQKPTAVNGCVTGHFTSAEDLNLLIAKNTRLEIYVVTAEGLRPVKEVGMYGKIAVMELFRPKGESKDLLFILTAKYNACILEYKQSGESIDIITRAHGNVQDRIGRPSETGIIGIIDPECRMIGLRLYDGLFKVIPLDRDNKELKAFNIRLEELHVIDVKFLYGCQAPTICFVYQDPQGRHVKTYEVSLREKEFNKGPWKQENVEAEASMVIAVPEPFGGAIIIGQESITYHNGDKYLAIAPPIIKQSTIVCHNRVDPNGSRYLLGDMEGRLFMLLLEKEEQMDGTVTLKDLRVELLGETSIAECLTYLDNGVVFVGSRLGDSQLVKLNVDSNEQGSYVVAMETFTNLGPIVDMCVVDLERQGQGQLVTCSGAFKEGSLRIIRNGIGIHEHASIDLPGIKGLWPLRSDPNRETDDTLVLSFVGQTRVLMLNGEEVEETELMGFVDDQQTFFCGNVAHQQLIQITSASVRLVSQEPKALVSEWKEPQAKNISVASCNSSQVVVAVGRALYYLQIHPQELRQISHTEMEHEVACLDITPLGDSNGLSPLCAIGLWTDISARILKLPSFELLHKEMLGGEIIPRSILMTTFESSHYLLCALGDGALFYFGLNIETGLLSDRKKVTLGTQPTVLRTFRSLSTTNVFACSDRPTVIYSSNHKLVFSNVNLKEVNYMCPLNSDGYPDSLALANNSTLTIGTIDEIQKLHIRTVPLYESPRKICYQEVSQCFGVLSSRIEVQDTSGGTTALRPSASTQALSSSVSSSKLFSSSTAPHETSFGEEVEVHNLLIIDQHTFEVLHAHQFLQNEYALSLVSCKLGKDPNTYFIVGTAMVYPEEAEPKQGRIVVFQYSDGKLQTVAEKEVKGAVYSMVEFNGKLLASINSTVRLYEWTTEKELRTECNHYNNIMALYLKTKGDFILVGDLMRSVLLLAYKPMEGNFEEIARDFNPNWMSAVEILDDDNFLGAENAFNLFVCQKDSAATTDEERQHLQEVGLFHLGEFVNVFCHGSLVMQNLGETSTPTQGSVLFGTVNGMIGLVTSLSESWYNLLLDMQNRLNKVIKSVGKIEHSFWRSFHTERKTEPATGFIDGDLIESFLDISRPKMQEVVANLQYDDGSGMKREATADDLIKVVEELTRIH
# experimental_protocol: Time-resolved fluorescence resonance energy transfer (TR-FRET) assay, displacement of Cy5-labeled thalidomide
# Type: binding
# measurement_parameters: read-out: CRBN HTRF IC50
experimental_readout: IC50

                                    compound   measurement
 0  CC(C)(C)OC(=O)NCCOCCOCC#Cc1cccc2c1c1cccnc1n2C1CCC(=O)NC1=O (centres unmarked) [I-61]       < 10 µM
 1  CC(C)(C)OC(=O)NCCOCCCc1ccc2c(c1)c1cccnc1n2C1CCC(=O)NC1=O (centres unmarked) [I-34]       < 10 µM
 2  CC(C)(C)OC(=O)NCCOCCOCCCc1cccc2c1c1cccnc1n2C1CCC(=O)NC1=O (centres unmarked) [I-60]       < 10 µM
 3  O=C1CCC(n2c3cc(Cl)ccc3c3cccnc32)C(=O)N1 (centres unmarked) [I-106]   10 to 30 µM
 4  O=C1CCC(n2c3ccccc3c3cccnc32)C(=O)N1 (centres unmarked) [I-2]       < 10 µM
 5  Cc1ccnc2c1c1ccccc1n2C1CCC(=O)NC1=O (centres unmarked) [I-77]       < 10 µM
 6  COc1ccc2c3ccccc3n(C3CCC(=O)NC3=O)c2n1 (centres unmarked) [I-82]   10 to 30 µM
 7  O=C1CCC(n2c3cccc(CCCOCCOCCO)c3c3cccnc32)C(=O)N1 (centres unmarked) [I-51]       < 10 µM
 8  CNc1ccc2c3ccccc3n(C3CCC(=O)NC3=O)c2n1 (centres unmarked) [I-79]       < 10 µM
 9  O=C1CCC(n2c3ccccc3c3c(Br)csc32)C(=O)N1 (centres unmarked) [I-89]       < 10 µM
10  O=C1CCC(n2c3cccc(Br)c3c3cccnc32)C(=O)N1 (centres unmarked) [I-30]       < 10 µM
11  CC(C)(C)OC(=O)N1CCc2c(c3cccnc3n2C2CCC(=O)NC2=O)C1 (centres unmarked) [I-40]   10 to 30 µM
12  CC(C)(C)OC(=O)NCCOCCOCCNc1ccc2c(c1)c1cccnc1n2C1CCC(=O)NC1=O (centres unmarked) [I-35]       < 10 µM
13  O=C1CCC(n2c3ncccc3c3cccnc32)C(=O)N1 (centres unmarked) [I-3]  30 to 100 µM
14  O=C1CCC(n2c3ccccc3c3ccncc32)C(=O)N1 (centres unmarked) [I-42]      > 100 µM
15  O=C1CCC(n2c3ccccc3c3cnccc32)C(=O)N1 (centres unmarked) [I-43]  30 to 100 µM
16  COc1nccc2c3ccccc3n(C3CCC(=O)NC3=O)c12 (centres unmarked) [I-65]  30 to 100 µM

Data origin: patent US11292792B2
